Recorded score values for a group of compounds are listed next.
- Procedure Details: suppressors of polyQ aggregation in yeast, 75Q-TubU reporter (AID 1593)
- Assay Conditions: Yeast 75Q polyglutamine aggregation reporter
Quantity Kind: score

INSERT INTO measurements (smi, recorded_measurement) VALUES
  ('CCc1cc(C(N)=S)ccn1', 1.02),
  ('Clc1ccc2c(c1)C(N1CCNCC1)=Nc1ccccc1O2', 1.21),
  ('CN(C)CCCN1c2ccccc2CCc2ccccc21', 1.28),
  ('CN(C)C(=O)Oc1ccc[n+](C)c1', 1.37);

----------
Recorded log fold change Tl+ flux values for a group of compounds are listed next.
- Tested on: F380Y
- Procedure Details: modulators of BK channel variants, profiling panel, selectivity assay, cell-based, U2OS BacMam, thallium flux, beta subunits (AID 1259406);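 also: initial slope of Thallos dye fluorescence rise after thallium is added; log ratio against the mean of 0.3% DMSO vehicle wells on the same plate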
- Assay Conditions: at 30 µM
Calls of active or inactive are those of the source.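 Rule for the calls: active = thallium flux through the channel raised or lowered by more than 3 SD from vehicle-only wells, actives on both sides; inactive = the rest.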
Quantity Kind: log fold change Tl+ flux

INSERT INTO results (compound, recorded_measurement) VALUES
  ('CCCN1C[C@H](CSC)C[C@@H]2c3cccc4[nH]cc(c34)C[C@H]21', '-0.0179 (inactive)'),
  ('Cc1noc(NS(=O)(=O)c2ccc(N)cc2)c1C', '0.00425 (inactive)'),
  ('CC(=O)S[C@@H]1CC2=CC(=O)CC[C@]2(C)[C@H]2CC[C@@]3(C)[C@@H](CC[C@@]34CCC(=O)O4)[C@H]12', '-0.00371 (inactive)'),
  ('OCCN1CCN(CCCN2c3ccccc3Sc3ccc(Cl)cc32)CC1', '0.23 (active)'),
  ('COc1c(N2CCNC(C)C2)c(F)cc2c(=O)c(C(=O)O)cn(C3CC3)c12 (stereo not given)', '-0.00177 (inactive)'),
  ('NC(=O)N1c2ccccc2CC(=O)c2ccccc21', '-0.0346 (inactive)'),
  ('Cc1ccc(O)c([C@H](CCN(C(C)C)C(C)C)c2ccccc2)c1', '0.149 (active)'),
  ('CCn1cc(C(=O)O)c(=O)c2cc(F)c(N3CCN(C)CC3)cc21', '-0.0273 (inactive)'),
  ('C[C@H](CCC(=O)O)[C@H]1CC[C@H]2[C@@H]3C(=O)C[C@@H]4CC(=O)CC[C@]4(C)[C@H]3CC(=O)[C@]12C', '-0.0147 (inactive)'),
  ('CNCCCC12CCC(c3ccccc31)c1ccccc12', '0.104 (inactive)');

Cited source: PubChem BioAssay
